// data source = patent US10064928B2

# assay-system: HLA-A*02:01 (Homo sapiens, UniProt P04439, D140Y/D185E/D98H/E176V/E277Q/G131W/G231S/I119V/I121R/I166T/I218V/L300P/L318F/N151K/N90K/P208A/P217A/Q86G/Q94H/R138H/R169H/T345S)
# test-name: MHC binding assay (UV-ligand exchange, beta2m ELISA)
# test-conditions: binding of HLA-class I restricted peptides to HLA-A*02:01, β2m ELISA
value-type: Peptide Exchange (MHC class I binding score, peptide exchange yield)

# substance, result
records = [
    ("281 (NLLDDRGMTAL; listed as Homo sapiens) [compound 281]", "“+++” (≥50 = +++)"),
    ("1 (AIPPSFASIFL; listed as Homo sapiens) [compound 1]", "“+++” (≥50 = +++)"),
]

====

# assay-system: HLA-A*02:01 (Homo sapiens, UniProt P04439, D140Y/D185E/D98H/E176V/E277Q/G131W/G231S/I119V/I121R/I166T/I218V/L300P/L318F/N151K/N90K/P208A/P217A/Q86G/Q94H/R138H/R169H/T345S)
# test-name: MHC binding assay (UV-ligand exchange, beta2m ELISA)
# test-conditions: binding of HLA-class I restricted peptides to HLA-A*02:01, β2m ELISA
value-type: Peptide Exchange (MHC class I binding score, peptide exchange yield)

Solved cases below.
# substance, result
data = [
    ("114 (LIPEGPPQV; listed as Homo sapiens) [compound 114]", "“+++” (≥50 = +++)"),
    ("67 (GLDDVTVEV; listed as Homo sapiens) [compound 67]", "“++” (≥20% = ++)"),
    ("179 (VLLGLEMTL; listed as Homo sapiens) [compound 179]", "“+++” (≥50 = +++)"),
    ("373 (TLLADQGEIRV; listed as Homo sapiens) [compound 373]", "“++” (≥20% = ++)"),
    ("247 (KLKDRLPSI; listed as Homo sapiens) [compound 247]", "“++” (≥20% = ++)"),
    ("298 (IILPVEVEV; listed as Homo sapiens) [compound 298]", "“+++” (≥50 = +++)"),
]

// lookup Peptide Exchange (MHC class I binding score, peptide exchange yield) for 50 (FLFEPVVKAFL; listed as Homo sapiens) [compound 50]
“+++” (≥50 = +++)

Given 12 (ALGEDEITL; listed as Homo sapiens) [compound 12] , state its recorded Peptide Exchange (MHC class I binding score, peptide exchange yield).
“+++” (≥50 = +++)

====

# assay-system: HLA-A*02:01 (Homo sapiens, UniProt P04439, D140Y/D185E/D98H/E176V/E277Q/G131W/G231S/I119V/I121R/I166T/I218V/L300P/L318F/N151K/N90K/P208A/P217A/Q86G/Q94H/R138H/R169H/T345S)
# test-name: MHC binding assay (UV-ligand exchange, beta2m ELISA)
# test-conditions: binding of HLA-class I restricted peptides to HLA-A*02:01, β2m ELISA
# Excerpt: Candidate peptides for T cell based therapies according to the present invention were further tested for their MHC binding capacity (affinity). The individual peptide-MHC complexes were produced by UV-ligand exchange, where a UV-sensitive peptide is cleaved upon UV-irradiation, and exchanged with the peptide of interest as analyzed. Only peptide candidates that can effectively bind and stabilize the peptide-receptive MHC molecules prevent dissociation of the MHC complexes. […]
value-type: Peptide Exchange (MHC class I binding score, peptide exchange yield)

Worked set:
# substance, result
measured = [
    ("235 (GLDDLLLFL; listed as Homo sapiens) [compound 235]", "“+++” (≥50 = +++)"),
    ("186 (VMDPTKILI; listed as Homo sapiens) [compound 186]", "“++++” (≥75% = ++++)"),
    ("94 (ILFPLRFTL; listed as Homo sapiens) [compound 94]", "“+++” (≥50 = +++)"),
    ("229 (FLLNLQNCHL; listed as Homo sapiens) [compound 229]", "“++++” (≥75% = ++++)"),
    ("159 (SLQEEKLIYV; listed as Homo sapiens) [compound 159]", "“+++” (≥50 = +++)"),
    ("347 (YLGPVSPSL; listed as Homo sapiens) [compound 347]", "“+++” (≥50 = +++)"),
]

// Peptide Exchange (MHC class I binding score, peptide exchange yield) lookup, key: 149 (SLDNGGYYI; listed as Homo sapiens) [compound 149]
“+++” (≥50 = +++)

Entry 128 (LLSEEEYHL; listed as Homo sapiens) [compound 128] : reported Peptide Exchange (MHC class I binding score, peptide exchange yield) = ?
“+++” (≥50 = +++)

I have this substance here, 293 (ALDIMIPMV; listed as Homo sapiens) [compound 293] , and I need its recorded Peptide Exchange (MHC class I binding score, peptide exchange yield).
“+++” (≥50 = +++)
